assay.overview: Compound stability in rat liver microsomes
Format: in vitro ADME
setup.conditions: pH 7.4; rat liver microsomes 0.5 mg protein/mL, compound 5 μM, NADPH 1.0 mM, 37° C.
endpoint: log10 of half-life at 5 μM (log10 of the value in min)
Short version: log10 scale, half-life at 5 μM, min.

stdin: Field request: log10 of half-life at 5 μM | item: CC[C@H](Nc1ncnc(N)c1-c1nnc(C)o1)c1nc2cccc(C)c2c(=O)n1C1CC1
stdout: 0.97

stdin: Please do the same for CC[C@H](Nc1ncnc(N)c1C1=N[C@@H](C)CO1)c1nc2cccc(Cl)c2c(=O)n1-c1ccccc1 as well.
stdout: 0.54

stdin: // repeat for CC[C@@H](Nc1ncnc(N)c1-c1ccon1)c1nc2cccc(Cl)c2c(=O)n1C1CC1 and report
stdout: 0.39

stdin: Thanks! And CC[C@H](Nc1ncnc(N)c1-c1nc(COC)n(C)n1)c1nc2cccc(Cl)c2c(=O)n1C1CC1 ?
stdout: 0.59

stdin: // same read-out, input: CC[C@H](Nc1ncnc(N)c1-c1nc(C)co1)c1nc2cccc(C)c2c(=O)n1-c1ccccc1C
stdout: 0.28

stdin: Entry Cc1noc(-c2c(N)ncnc2N[C@@H](C)c2nc3cccc(Cl)c3c(=O)n2-c2ccccc2)n1 please
stdout: 1.51

stdin: And for CC(C)c1nc(-c2c(N)ncnc2N[C@@H](C)c2nc3cccc(Cl)c3c(=O)n2C2CC2)no1 ?
stdout: 0.53

stdin: Repeat with CC[C@H](Nc1ncnc(N)c1-c1ncn(C)n1)c1nc2cccc(C)c2c(=O)n1-c1ccccc1C
stdout: 0.93

stdin: Would you kindly repeat that for CC[C@H](Nc1ncnc(N)c1-c1nnn(C)n1)c1nc2cccc(F)c2c(=O)n1-c1ccccc1 ?
stdout: 0.85

stdin: Now consider CC[C@H](Nc1ncnc(N)c1-c1nc(C)no1)c1nc2ccccc2c(=O)n1-c1ccccc1F .
stdout: 0.90

stdin: Now consider CC[C@H](Nc1ncnc(N)c1-c1nnc(C)o1)c1nc2ccccc2c(=O)n1-c1ccccc1F and answer again.
stdout: 0.73
